Data origin, for the record: patent US20220265629A1

Test: Single ascending oral dose study in healthy volunteers: plasma pharmacokinetics
Assay type: in vivo, human
Details: human, plasma, oral, 6 hours post-dose; bin >2000 ng/mL (n = 10); read-out: Plasma Concentration, Mean
MEASURED METRIC: concentration at 6 h (ng/mL)

structure_notation=Cn1cc(S(=O)(=O)[C@@](C)(F)C2CCN(C(=O)Nc3ccon3)CC2)c(C(F)F)n1 reading=2590

---

Experiment: Single ascending oral dose study in healthy volunteers: plasma pharmacokinetics
Type: in vivo, human
Details: human, plasma, oral, 525 mg, 72 Hours Postdose; 525 mg; read-out: Plasma concentration, Median
MEASURED METRIC: concentration at 72 h (ng/mL)

structure_notation=Cn1cc(S(=O)(=O)[C@@](C)(F)C2CCN(C(=O)Nc3ccon3)CC2)c(C(F)F)n1 measured_metric="concentration at 72 h" reading=122

---

Test: Single ascending oral dose study in healthy volunteers: plasma pharmacokinetics
Assay type: in vivo, human
Conditions: human, plasma, oral, 25 mg, 12 Hours Postdose; 25 mg; read-out: Plasma concentration, Mean
MEASURED METRIC: concentration at 12 h

structure_notation=Cn1cc(S(=O)(=O)[C@@](C)(F)C2CCN(C(=O)Nc3ccon3)CC2)c(C(F)F)n1 measured_metric="concentration at 12 h" reading="211 ng/mL"

---

Assay: Single ascending oral dose study in healthy volunteers: plasma pharmacokinetics
Type: in vivo, human
Conditions: human, plasma, oral, 100 mg; read-out: AUC0-last, Mean
MEASURED METRIC: AUC(0-t) (ng·h/mL)

structure_notation=Cn1cc(S(=O)(=O)[C@@](C)(F)C2CCN(C(=O)Nc3ccon3)CC2)c(C(F)F)n1 unit_name=ng·h/mL reading=22700

---

Test: Food effect cross-over study, 200 mg (25 mg tablets), healthy volunteers: plasma pharmacokinetics
Type: in vivo, human
Settings: human, plasma, oral, 5 hours postdose, Fed, read-out: Plasma concentration, Mean
MEASURED METRIC: concentration at 5 h (ng/mL)

structure_notation=Cn1cc(S(=O)(=O)[C@@](C)(F)C2CCN(C(=O)Nc3ccon3)CC2)c(C(F)F)n1 measured_metric="concentration at 5 h" reading=3150

---

Test: Single ascending oral dose study in healthy volunteers: plasma pharmacokinetics
Format: in vivo, human
Settings: human, plasma, oral, 175 mg; read-out: AUC0-∞, Mean
MEASURED METRIC: AUC(0-inf) (µg·h/mL)

structure_notation=Cn1cc(S(=O)(=O)[C@@](C)(F)C2CCN(C(=O)Nc3ccon3)CC2)c(C(F)F)n1 unit_name=µg·h/mL reading=39.1

---

Assay: Food effect cross-over study, 200 mg (25 mg tablets), healthy volunteers: plasma pharmacokinetics
Assay type: in vivo, human
Conditions: human, plasma, po, single 200 mg oral dose, Fed (N = 10), read-out: MRT, Mean
MEASURED METRIC: MRT

compound="Cn1cc(S(=O)(=O)[C@@](C)(F)C2CCN(C(=O)Nc3ccon3)CC2)c(C(F)F)n1 [Compound I]" measured_metric=MRT reading="23.1 h"

---

Experiment: Single ascending oral dose study in healthy volunteers: plasma pharmacokinetics
Format: in vivo, human
Conditions: human, plasma, oral, 350 mg; read-out: Mean Residence Time, Median
MEASURED METRIC: MRT (h)

compound="Cn1cc(S(=O)(=O)[C@@](C)(F)C2CCN(C(=O)Nc3ccon3)CC2)c(C(F)F)n1 [Compound I]" measured_metric=MRT unit_name=h reading=22.7
